Each recorded value in this set is attributed to PubChem BioAssay (NCI).

Catalogue of compounds with associated GI50
Tested on: HCT-15 colon
Assay: NCI tumour cell line growth inhibition, 48 h

Compound: CC1=C(C(=O)Nc2ccc(Cl)c(Cl)c2)C(c2cccc(Cl)c2)NC(=S)N1 (configuration not stated)
Observed: 15.1 µM

Now let's try a different one.
Looking up O=C1C(Cl)=C(NCCCN(CCCNC2=C(Cl)C(=O)c3ccccc3C2=O)C2=C(Cl)C(=O)c3ccccc3C2=O)C(=O)c2ccccc21 , I found its GI50 recorded as 1.66 µM

----------
Test system: HL-60(TB) leukemia
Experiment: NCI tumour cell line growth inhibition, 48 h
Catalogue of compounds with associated TGI
Value expressed in µM; do not type the unit.

Compound: COC(=O)c1c2c(cc3c1CC1(Cc4ccccc4C1)C3)CCC2
Result Type: TGI
Observed: 69.5

Compound: CC1=C(C(=O)Nc2ccc(Cl)c(Cl)c2)C(c2cccc(Cl)c2)NC(=S)N1 (configuration not stated)
Result Type: TGI
Observed: 45.5

Compound: C(=N\Nc1ccc2ccccc2n1)/c1ccccn1
Result Type: TGI
Observed: 2.3

Now let's try a different one.
Item O=C(NC1=C(Cl)C(=O)c2ccccc2C1=O)C(=O)C(C(=O)c1ccc2ccccc2c1)C1OC(=O)c2ccccc21 (configuration not stated) was tested on HL-60(TB) leukemia; the reported TGI is 7.6

----------
Test system: UACC-257 melanoma
Assay: NCI tumour cell line growth inhibition, 48 h
Catalogue of molecules with associated TGI

Compound Structure: O=C1NC(=NCCc2ccc(Br)cc2)S/C1=C\c1ccc2ncccc2c1
Assay System: UACC-257 melanoma
TGI: > 25 µM
//
Compound Structure: O=c1[nH]c2ccc(CC(=S)N3CCOCC3)cc2o1
Assay System: UACC-257 melanoma
TGI: > 100 µM
//
Compound Structure: Cc1ccc(S(=O)(=O)NNS(C)(=O)=O)cc1
Assay System: UACC-257 melanoma
TGI: > 100 µM
//
Compound Structure: COc1ccc(N2C(=O)/C(=C/c3ccc(N(CCC#N)CCC#N)cc3)N=C2c2ccccc2)cc1
Assay System: UACC-257 melanoma
TGI: > 100 µM

Now let's try a different one.
Looking up O=C(N/C(=C\c1ccc(/C=C(\NC(=O)c2ccccc2)c2nc3c(O)nc(S)nc3[nH]2)cc1)c1nc2c(O)nc(S)nc2[nH]1)c1ccccc1 , I found its TGI recorded as > 100 µM

----------
System: NCI-H460 lung
Assay: NCI tumour cell line growth inhibition, 48 h
Result Type: TGI

Compound: N#Cc1c(N)nc(N2CCOCC2)c(C#N)c1-c1c(Cl)cccc1Cl
TGI: 44.6 µM
//
Compound: Oc1[nH]c2ccccc2c1C=Nc1ccc(-n2cncn2)cc1
TGI: > 25 µM
//
Compound: CC#CCCCC1(C)CCNC1=S (stereo unspecified)
TGI: > 10 µM
//
Compound: COc1ccc(Nc2nc(N)c(C(=O)c3ccc(Cl)cc3)s2)cc1
TGI: 4.62 µM
//
Compound: CC(=O)[C@@]1(c2ccccc2)CC2(CCN(C)CC2)O[C@H]1C
TGI: > 100 µM

Looking up Cc1cc(O)c2c(c1)C(C1c3cccc(O)c3C(=O)c3c(O)cc(C)cc31)c1cccc(O)c1C2=O (stereo unspecified) , I found its TGI recorded as 12.8 µM

Looking up COc1ccc(N2C(=O)/C(=C/c3ccc(N(CCC#N)CCC#N)cc3)N=C2c2ccccc2)cc1 , I found its TGI recorded as > 100 µM

Looking up CC1CN(CCO)CCN1c1ccccc1 (stereo unspecified) , I found its TGI recorded as > 100 µM

Looking up COC(=O)C12Oc3ccc(-c4ccc5c(c4O)C(O)=C4C(=O)CC(C)C(O)C4(C(=O)OC)O5)c(O)c3C(O)=C1C(=O)CC(C)C2O (stereo unspecified) , I found its TGI recorded as > 100 µM

Looking up Cc1c(-c2ccccn2)ccc2ccccc12 , I found its TGI recorded as > 100 µM

----------
Tested on: OVCAR-4 ovarian
Experiment: NCI tumour cell line growth inhibition, 48 h
Result Type: TGI (µM)
Value expressed in µM; do not type the unit.

Examples from the recorded data:
Compound: Cc1ccc(S(=O)(=O)C2CC2(Cl)Cl)cc1 (centres undefined)
Unit Abbreviation: µM
Observed: 13.8

Compound: COc1ccc2c(c1)-c1c(c3cc(OC)ccc3n(CCN(C)C)c1=O)C2=O
Unit Abbreviation: µM
Observed: 4

Looking up O=C1Nc2ccc(Cl)c(I)c2C1=O , I found its TGI recorded as 32

----------
Test system: A549 NSCLC
Assay: NCI tumour cell line growth inhibition, 48 h
Result Type: GI50

Compound Structure: Cc1cc(N(CCNc2ccnc3cc(Cl)ccc23)Cc2ccc3c(c2)OCO3)nc(N2CCCC2)n1
GI50: 1.67 µM

Looking up Oc1[nH]c2ccccc2c1C=Nc1ccc(-n2cncn2)cc1 , I found its GI50 recorded as > 18.5 µM

Looking up CC1=C[C@@H]2c3c(c(O)c(O)c4oc5cc(O)cc(O)c5c(=O)c34)[C@@H](c3cc(O)c(O)c4oc5cc(O)cc(O)c5c(=O)c34)[C@@H]2C(C)(C)C1 , I found its GI50 recorded as 4.12 µM

Looking up Cc1ccc(-c2nc3sc(C)cn3c2/C=C2\C(=O)Nc3ccc(Cl)cc32)cc1 , I found its GI50 recorded as 14.1 µM

----------
Test system: MDA-MB-435
Experiment: NCI tumour cell line growth inhibition, 48 h
Result Type: TGI

Examples from the recorded data:
Compound: COc1cc(S(=O)(=O)Nc2ccc(-c3csc(N4C(=O)CSC4c4ccccc4O)n3)cc2)ccc1Cl (configuration not stated)
Observed: > 100 µM
--
Compound: COc1ccc([I+]c2ccc(OC)cc2)cc1
Observed: > 100 µM
--
Compound: O=c1[nH]c(=O)n(C2CC(O)C(CO)O2)cc1Br (configuration not stated)
Observed: > 100 µM

Item O=C(CC(C(=O)c1cccs1)c1ccsc1)c1ccc(Cl)s1 (configuration not stated) was tested on MDA-MB-435; the reported TGI is > 100 µM

Item COC(=O)c1cc2cc(/C=C3/SC(=S)N(N(C(C)=O)C(C)=O)C3=O)oc2n1Cc1ccccc1 was tested on MDA-MB-435; the reported TGI is > 100 µM

Item C=C1CCOC2(C(O)C(C)(O)CO)NC(=O)C1(O)NC2=O (configuration not stated) was tested on MDA-MB-435; the reported TGI is > 100 µM

Item O=C1NC(=NCCc2ccc(Br)cc2)S/C1=C\c1ccc2ncccc2c1 was tested on MDA-MB-435; the reported TGI is > 25 µM

Item CN1C(=O)C23CCCC2CC1(c1ccccc1)S3 (configuration not stated) was tested on MDA-MB-435; the reported TGI is > 100 µM

----------
System: EKVX NSCLC
Experiment: NCI tumour cell line growth inhibition, 48 h
Result Type: GI50

Examples from the recorded data:
Compound Structure: O=C(NCCNCCO)c1ccc(Nc2nc3ccccc3c3occc23)cc1
GI50: 13.9 µM
--
Compound Structure: O=C(Oc1c(Cl)cc(Cl)cc1Cl)c1ccccc1Nc1ccnc(C(F)(F)F)c1
GI50: 3.31 µM
--
Compound Structure: COc1cnccc1Nc1nc(-c2nn(Cc3c(F)cc(OCCO)cc3F)c3ccccc23)ncc1OC
GI50: 13.5 µM

Looking up CCOC(=O)/C=C1/SC(=Nc2ccc(C#N)cc2)N(Cc2ccco2)C1=O , I found its GI50 recorded as 5.66 µM

Looking up CC/C=C\C[C@H]1C/C=C2/C(=O)C(Cl)=C[C@@H]2C/C=C\CCCC(=O)O1 , I found its GI50 recorded as 0.805 µM

Looking up O=C1C(=C([O-])c2ccccc2)C(=O)c2ccccc21.O=C1C(=C([O-])c2ccccc2)C(=O)c2ccccc21.[Ni+2] , I found its GI50 recorded as 44.4 µM

----------
Test system: ACHN renal
Assay: NCI tumour cell line growth inhibition, 48 h
Result Type: TGI

Looking up CCC(Nc1ncnc2nc[nH]c12)C(=O)O (configuration not stated) , I found its TGI recorded as > 100 µM

Looking up COC(=O)C(=O)C(C(=O)OC)C(=O)C(=O)Nc1c(Cl)cc([N+](=O)[O-])cc1Cl (configuration not stated) , I found its TGI recorded as > 100 µM

Looking up S=C(SSC(=S)N1CCCCC1)N1CCCCC1 , I found its TGI recorded as 41 µM

Looking up COc1ccc(C(O)c2ccccn2)cc1 (configuration not stated) , I found its TGI recorded as > 100 µM

----------
System: PC-3 prostate
Assay: NCI tumour cell line growth inhibition, 48 h
Catalogue of molecules with associated TGI

Examples from the recorded data:
Molecule: O=C(C(=CN1CCN(C(=O)c2ccco2)C1=S)C(=O)c1ccccc1)c1ccccc1
Assay System: PC-3 prostate
TGI: > 50 µM
--
Molecule: O=C1CC(c2ccccc2)n2c(nc3ccccc32)N1 (stereo not drawn)
Assay System: PC-3 prostate
TGI: > 100 µM

Now let's try a different one.
Looking up Cn1c(=O)c2[nH]c(SC/C(=N/O)c3ccc(Br)cc3)nc2n(C)c1=O , I found its TGI recorded as > 100 µM
